# SYSTEM_TESTED: D(2) dopamine receptor (Homo sapiens)
# METHOD_DESCRIPTION: Displacement of [3H]spiperone from high-affinity state of human dopamine D2L receptor transfected in HEK293 cells after 2 hrs by scintillation counting analysis
# Type: cell-based
# STATED_CONDITIONS: read-out: Ki
pKi: −log10 of the molar value.
ASSAY_ENDPOINT: pKi

compound_structure_string=Oc1ccc2c(c1)O[C@@H](CNCCN1CCN(c3ccc(OCCF)cc3)CC1)CC2 assay_endpoint=pKi measured_number=8.18

1. Oc1ccc2c(c1)O[C@@H](CNCc1ccc(OCCCCF)cc1)CC2
2. Oc1ccc2c(c1)O[C@@H](CNCc1ccccc1I)CC2
3. Oc1ccc2c(c1)O[C@@H](CNCc1cccc(I)c1)CC2
With regard to pKi, arrange the entries in ascending order, please. // rank by listing labels in the order requested 1, 3, 2
(1: 8.25, 3: 8.69, 2: 9.17)

----------
# SYSTEM_TESTED: D(1A) dopamine receptor (Homo sapiens)
# Sequence (P21728 whole entry): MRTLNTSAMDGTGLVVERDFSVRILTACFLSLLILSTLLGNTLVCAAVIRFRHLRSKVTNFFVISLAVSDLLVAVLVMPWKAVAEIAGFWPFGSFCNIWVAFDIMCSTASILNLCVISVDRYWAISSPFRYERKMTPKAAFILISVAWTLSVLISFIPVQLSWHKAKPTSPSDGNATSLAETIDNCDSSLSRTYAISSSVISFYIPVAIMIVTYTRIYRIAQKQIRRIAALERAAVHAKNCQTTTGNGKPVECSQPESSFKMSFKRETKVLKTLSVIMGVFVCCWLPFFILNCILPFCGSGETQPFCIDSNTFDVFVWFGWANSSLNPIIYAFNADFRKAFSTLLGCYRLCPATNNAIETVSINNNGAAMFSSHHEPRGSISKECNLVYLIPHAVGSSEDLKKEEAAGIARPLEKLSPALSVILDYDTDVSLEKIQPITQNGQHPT
# METHOD_DESCRIPTION: Displacement of [3H]SCH23390 from human dopamine D1 receptor transfected in HEK293 cells after 2 hrs by scintillation counting analysis
# Type: cell-based
# STATED_CONDITIONS: read-out: Ki
ASSAY_ENDPOINT: Ki (µM)

Past entries and their recorded results:
compound_structure_string=Oc1ccc2c(c1)O[C@@H](CNCc1ccccc1OCCCCF)CC2 system_tested="D(1A) dopamine receptor (Homo sapiens)" measure_unit=µM measured_number=1.16
compound_structure_string=Oc1ccc2c(c1)O[C@@H](CNCc1ccc(OCCCCF)cc1)CC2 system_tested="D(1A) dopamine receptor (Homo sapiens)" measure_unit=µM measured_number=6.91
compound_structure_string=Oc1ccc2c(c1)O[C@@H](CNCc1cccc(I)c1)CC2 system_tested="D(1A) dopamine receptor (Homo sapiens)" measure_unit=µM measured_number=4.29
compound_structure_string=Oc1ccc2c(c1)O[C@@H](CNCc1ccccc1I)CC2 system_tested="D(1A) dopamine receptor (Homo sapiens)" measure_unit=µM measured_number=0.436
compound_structure_string=CCCCCCNC[C@H]1CCc2ccc(O)cc2O1 system_tested="D(1A) dopamine receptor (Homo sapiens)" measure_unit=µM measured_number=10.9

I. Oc1ccc2c(c1)O[C@@H](CNCc1ccc(I)cc1)CC2
II. Oc1ccc2c(c1)O[C@@H](CNCCN1CCN(c3ccc(I)cc3)CC1)CC2
III. Oc1ccc2c(c1)O[C@@H](CN1CCN(c3ccc(I)cc3)CC1)CC2
Sort the 3 compounds by Ki; largest first, smallest last. // rank by listing labels in the order requested III, I, II

----------
# SYSTEM_TESTED: D(3) dopamine receptor (Homo sapiens, UniProt P35462)
# Sequence (P35462 whole entry): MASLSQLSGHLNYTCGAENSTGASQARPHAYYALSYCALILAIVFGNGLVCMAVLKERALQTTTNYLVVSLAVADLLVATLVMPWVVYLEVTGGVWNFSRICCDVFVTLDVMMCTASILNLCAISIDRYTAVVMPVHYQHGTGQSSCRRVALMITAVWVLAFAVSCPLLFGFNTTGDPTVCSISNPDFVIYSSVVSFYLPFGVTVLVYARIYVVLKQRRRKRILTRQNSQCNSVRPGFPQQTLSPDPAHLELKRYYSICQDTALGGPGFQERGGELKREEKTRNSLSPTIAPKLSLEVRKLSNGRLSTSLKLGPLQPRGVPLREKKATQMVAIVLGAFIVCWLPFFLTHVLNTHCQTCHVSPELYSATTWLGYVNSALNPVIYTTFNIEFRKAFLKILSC
# METHOD_DESCRIPTION: Displacement of [3H]spiperone from human dopamine D3 receptor transfected in HEK293 cells after 2 hrs by scintillation counting analysis
# Assay type: cell-based
# STATED_CONDITIONS: read-out: pKi (converted)
ASSAY_ENDPOINT: Ki (nM)

Past entries and their recorded results:
compound_structure_string=Oc1ccc2c(c1)O[C@@H](CNCc1ccccc1I)CC2 measured_number=1.66
compound_structure_string=Oc1ccc2c(c1)O[C@@H](CN1CCN(c3ccc(OCCF)cc3)CC1)CC2 measured_number=37.2
compound_structure_string=Oc1ccc2c(c1)O[C@@H](CNCCN1CCN(c3ccc(OCCF)cc3)CC1)CC2 measured_number=8.71
compound_structure_string=Oc1ccc2c(c1)O[C@@H](CNCCN1CCN(c3ccc(I)cc3)CC1)CC2 measured_number=21.9

I. Oc1ccc2c(c1)O[C@@H](CNCc1cccc(I)c1)CC2
II. Oc1ccc2c(c1)O[C@@H](CNCc1ccc(I)cc1)CC2
III. CCCCCCNC[C@H]1CCc2ccc(O)cc2O1
With regard to Ki, arrange the entries in ascending order, please. // rank by listing labels in the order requested I, II, III
(I: 2.88 nM, II: 5.62 nM, III: 19.1 nM)

----------
# SYSTEM_TESTED: D(2) dopamine receptor (Homo sapiens, UniProt P14416)
# Sequence (P14416 whole entry): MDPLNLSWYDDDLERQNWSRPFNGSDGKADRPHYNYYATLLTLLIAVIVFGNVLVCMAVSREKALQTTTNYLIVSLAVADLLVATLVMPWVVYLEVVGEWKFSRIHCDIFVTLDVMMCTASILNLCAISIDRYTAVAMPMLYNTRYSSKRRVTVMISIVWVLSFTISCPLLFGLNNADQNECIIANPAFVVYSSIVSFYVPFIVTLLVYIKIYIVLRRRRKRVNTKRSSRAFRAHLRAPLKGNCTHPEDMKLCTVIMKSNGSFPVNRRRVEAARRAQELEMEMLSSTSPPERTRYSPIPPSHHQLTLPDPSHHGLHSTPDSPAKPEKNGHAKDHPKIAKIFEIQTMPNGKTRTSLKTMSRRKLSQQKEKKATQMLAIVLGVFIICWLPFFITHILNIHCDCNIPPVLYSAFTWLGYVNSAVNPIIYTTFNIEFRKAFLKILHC
# METHOD_DESCRIPTION: Displacement of [3H]spiperone from low-affinity state of human dopamine D2S receptor transfected in HEK293 cells after 2 hrs by scintillation counting analysis
# Format: cell-based
# STATED_CONDITIONS: read-out: pKi (converted)
ASSAY_ENDPOINT: Ki (nM)

compound_structure_string=Oc1ccc2c(c1)O[C@@H](CNCc1ccccc1I)CC2 assay_endpoint=Ki measured_number=83.2

1. Oc1ccc2c(c1)O[C@@H](CNCc1ccc(OCCCCF)cc1)CC2
2. Oc1ccc2c(c1)O[C@@H](CNCCN1CCN(c3ccc(OCCF)cc3)CC1)CC2
3. Oc1ccc2c(c1)O[C@@H](CNCc1cccc(I)c1)CC2
Sort the 3 molecules by Ki; largest first, smallest last. // rank by listing labels in the order requested 2, 1, 3
(2: 234 nM, 1: 91.2 nM, 3: 28.8 nM)

----------
# SYSTEM_TESTED: D(2) dopamine receptor (Rattus norvegicus)
# Sequence (P61169 whole entry): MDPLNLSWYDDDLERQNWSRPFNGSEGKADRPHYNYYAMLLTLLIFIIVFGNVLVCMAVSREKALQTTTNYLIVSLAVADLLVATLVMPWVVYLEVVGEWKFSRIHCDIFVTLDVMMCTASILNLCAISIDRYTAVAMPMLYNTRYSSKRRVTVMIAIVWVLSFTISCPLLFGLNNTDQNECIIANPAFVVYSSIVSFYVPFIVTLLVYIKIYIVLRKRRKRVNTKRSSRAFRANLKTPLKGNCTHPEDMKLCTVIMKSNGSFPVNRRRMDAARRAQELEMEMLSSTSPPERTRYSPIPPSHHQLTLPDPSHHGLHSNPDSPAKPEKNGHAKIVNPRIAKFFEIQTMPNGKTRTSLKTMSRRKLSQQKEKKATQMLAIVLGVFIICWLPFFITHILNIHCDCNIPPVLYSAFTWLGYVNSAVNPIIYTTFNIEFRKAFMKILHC
Structures can show the parent of a compound that is named as a salt.
ASSAY_ENDPOINT: pKi
// returns pKi (minus log10 of molar concentration), number only

Hi! What's the reported pKi for CCCN1CCO[C@@H]2c3cc(O)ccc3CC[C@H]21 [NAXAGOLIDE HYDROCHLORIDE] on D(2) dopamine receptor (Rattus norvegicus)? 9.22

----------
# SYSTEM_TESTED: D(2) dopamine receptor (Homo sapiens)
# METHOD_DESCRIPTION: Agonist activity at human dopamine D2L receptor expressed in HEK293 cells assessed as inhibition of forskolin-induced cAMP accumulation after 30 mins by LANCE assay
pEC50: −log10 of the molar value.
ASSAY_ENDPOINT: pEC50

Past entries and their recorded results:
compound_structure_string=Oc1ccc2c(c1)O[C@@H](CNCc1cccc(I)c1)CC2 system_tested="D(2) dopamine receptor (Homo sapiens)" measured_number=10.50
compound_structure_string=Oc1ccc2c(c1)O[C@@H](CNCCN1CCN(c3ccc(OCCF)cc3)CC1)CC2 system_tested="D(2) dopamine receptor (Homo sapiens)" measured_number=9.80
compound_structure_string=CCCCCCNC[C@H]1CCc2ccc(O)cc2O1 system_tested="D(2) dopamine receptor (Homo sapiens)" measured_number=10.30

P. Oc1ccc2c(c1)O[C@@H](CNCc1ccc(OCCCCF)cc1)CC2
Q. Oc1ccc2c(c1)O[C@@H](CNCCN1CCN(c3ccc(I)cc3)CC1)CC2
Pick the one with the larger pEC50: P vs Q The response must carry the label of the picked entry. P

----------
# SYSTEM_TESTED: D(1B) dopamine receptor (Homo sapiens, UniProt P21918)
# Sequence (P21918 whole entry): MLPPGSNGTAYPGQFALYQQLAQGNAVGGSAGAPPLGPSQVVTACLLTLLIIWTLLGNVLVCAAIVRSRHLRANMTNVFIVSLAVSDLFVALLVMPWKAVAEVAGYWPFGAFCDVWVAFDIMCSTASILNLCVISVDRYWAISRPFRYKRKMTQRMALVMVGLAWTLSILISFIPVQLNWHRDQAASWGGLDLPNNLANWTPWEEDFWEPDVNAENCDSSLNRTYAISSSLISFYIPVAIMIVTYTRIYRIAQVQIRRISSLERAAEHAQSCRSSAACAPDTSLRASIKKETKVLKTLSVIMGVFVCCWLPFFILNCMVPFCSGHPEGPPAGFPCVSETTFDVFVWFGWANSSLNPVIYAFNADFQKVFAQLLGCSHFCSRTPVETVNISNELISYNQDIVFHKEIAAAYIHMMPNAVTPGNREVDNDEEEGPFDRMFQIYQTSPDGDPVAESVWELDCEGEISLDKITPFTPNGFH
# METHOD_DESCRIPTION: Displacement of [3H]SCH23390 from human dopamine D5 receptor transfected in HEK293 cells after 2 hrs by scintillation counting analysis
# Format: cell-based
# STATED_CONDITIONS: read-out: pKi (converted)
ASSAY_ENDPOINT: Ki (µM)

compound_structure_string=CCCCCCNC[C@H]1CCc2ccc(O)cc2O1 measure_unit=µM measured_number=2.75

a. Oc1ccc2c(c1)O[C@@H](CNCc1ccc(OCCCCF)cc1)CC2
b. Oc1ccc2c(c1)O[C@@H](CNCc1cccc(I)c1)CC2
Min Ki? a | b The response must carry the label of the picked entry. a

----------
# SYSTEM_TESTED: D(4) dopamine receptor (Homo sapiens)
# Sequence (P21917 whole entry): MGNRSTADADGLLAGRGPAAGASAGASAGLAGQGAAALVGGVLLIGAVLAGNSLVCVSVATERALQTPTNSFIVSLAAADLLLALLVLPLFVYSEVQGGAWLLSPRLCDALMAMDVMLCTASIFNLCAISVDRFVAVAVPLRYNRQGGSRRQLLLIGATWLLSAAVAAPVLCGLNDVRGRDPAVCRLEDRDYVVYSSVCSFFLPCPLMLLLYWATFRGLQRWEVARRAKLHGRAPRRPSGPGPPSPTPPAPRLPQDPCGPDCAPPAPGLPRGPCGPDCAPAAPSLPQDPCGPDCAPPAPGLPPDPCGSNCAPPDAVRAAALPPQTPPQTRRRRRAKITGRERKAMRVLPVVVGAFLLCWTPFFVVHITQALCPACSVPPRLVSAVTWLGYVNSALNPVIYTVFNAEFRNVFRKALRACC
# METHOD_DESCRIPTION: Displacement of [3H]spiperone from human dopamine D4 receptor transfected in HEK293 cells after 2 hrs by scintillation counting analysis
# Assay type: cell-based
# STATED_CONDITIONS: read-out: pKi (converted)
ASSAY_ENDPOINT: Ki (nM)

A. Oc1ccc2c(c1)O[C@@H](CNCc1ccc(I)cc1)CC2
B. Oc1ccc2c(c1)O[C@@H](CNCCN1CCN(c3ccc(OCCF)cc3)CC1)CC2
C. CCCCCCNC[C@H]1CCc2ccc(O)cc2O1
D. Oc1ccc2c(c1)O[C@@H](CN1CCN(c3ccc(OCCF)cc3)CC1)CC2
Order the entries above from lowest to highest Ki. // rank by listing labels in the order requested A, C, B, D
